Reference for the values: PubChem BioAssay (NCI)

- Tested on: EKVX NSCLC
- assay: NCI-60 one-dose screen, 48 h (100 = growth as untreated, 0 = no growth, -100 = all killed)
- stated.conditions: 10 µM unless noted
This is part of a sample that, as a whole, favours compounds with a hit. Of some 83,000 tested, about 20% had one in any assay.
value.kind: growth (%)
Give bare numbers, in %.

Completed entries (count: 2):
Cc1cccc(NC(=O)c2sc3nc4c(cc3c2N)CN(Cc2ccccc2)CC4)c1C; 44.1
C[C@H]1[C@H](C)CC[C@]2(C(=O)OCCOCCOCC[P+](c3ccccc3)(c3ccccc3)c3ccccc3)CC[C@]3(C)C(=CC[C@@H]4[C@@]5(C)CC[C@H](OC(=O)C(Cl)Cl)C(C)(C)[C@@H]5CC[C@]43C)[C@H]12; -3.78

Please state growth for every compound in the list that follows.
1. C=C1C(=O)O[C@H]2[C@H]1CC/C(COC(=O)c1cc3ccccc3o1)=C\CC[C@@]1(C)O[C@@H]21
2. COc1ccc(-c2cc(-c3nnc(SCC(=O)Nc4ccc(/C(C)=N\O)cc4)o3)c3ccccc3n2)cc1

[-26.4, 103]

====

- System: KM12 colon
- assay: NCI-60 one-dose screen, 48 h (100 = growth as untreated, 0 = no growth, -100 = all killed)
- stated.conditions: 10 µM unless noted
The panel holds about 83,000 compounds, 20% with a hit somewhere; the sample as a whole holds those more often. Activity calls are given as the source filed them. Rule for the calls: active = growth percent below 10; inactive = the rest.
For each record, write down the corresponding growth.

Cc1c(Cl)cccc1NC(=O)c1sc2nc3c(cc2c1N)CN(Cc1ccccc1)CC3; 30.8% (inactive)
COC(=O)/C=C/c1cc(OC(C)=O)c2c(c1)C(C(=O)OC)C(c1ccc(OC(C)=O)c(OC(C)=O)c1)O2 (centres undefined); 16.5% (inactive)
Nc1cc(N)nc(SCC(=O)O)n1; 104% (inactive)
C[C@H]1[C@H](C)CC[C@]2(C(=O)OCCCC[P+](c3ccccc3)(c3ccccc3)c3ccccc3)CC[C@]3(C)C(=CC[C@@H]4[C@@]5(C)CC[C@H](OC(=O)C(Cl)Cl)C(C)(C)[C@@H]5CC[C@]43C)[C@H]12; -85.7% (active)

Parameters: items (list). Returns: growth for each item.
1. N#Cc1c(-c2ccc(F)cc2)nc(N/N=C/c2cccc(O)c2)nc1N1CCOCC1
2. COc1ccc2[nH]c(-c3ccccc3)c(C=C(C#N)C#N)c2c1
3. COc1ccc(Nc2nc(SCC(C)C)nc(-c3ccc(F)cc3)c2C#N)cc1
4. O=C(Nc1cc(Br)ccn1)c1cc2cc(Nc3nc(-c4ccccc4)nc4ccccc34)ccc2oc1=O

86% (inactive)
18.6% (inactive)
44.4% (inactive)
102% (inactive)

Returns the measured growth for the input molecule. Input: O=c1c2ccccc2oc2ccc(OCCCCCCN3CCCCCC3)cc12
29% (inactive)

====

- Test system: SK-MEL-2 melanoma
- assay: NCI-60 one-dose screen, 48 h
- stated.conditions: 10 µM unless noted
This is part of a sample that, as a whole, favours compounds with a hit. Of some 83,000 tested, about 20% had one in any assay. Calls of active or inactive are those of the source. Rule for the calls: active = growth percent below 10; inactive = the rest.
The categories you may choose from are active, inactive

Consider the following illustrative entries.
CCOCCc1c(O)nc(SC)[nH]c1=O; active
O=CN1N=C(c2ccc3c(c2)OCO3)CC1c1cccc(Nc2ccnc3cc(C(F)(F)F)ccc23)c1 (stereo not given); inactive
CNc1cccc2c1C(=O)c1cccc(N)c1C2=O; inactive
COc1cc(C2=NN(C=O)C(c3cccc(Nc4ccnc5cc(C(F)(F)F)ccc45)c3)C2)cc(OC)c1OC (stereo not given); inactive
CC1=C(CCCOC(=O)NCCCl)C2=C(C)C3(CC3)[C@@](C)(O)C(=O)C2=C1; inactive

Record lookup: outcome of this test for CCOCc1nc2ccccc2c(=O)[nH]1 ?
inactive
